ASSAY_SYSTEM: PARP-1 (Homo sapiens, UniProt P09874)
Construct: purchased
Sequence (P09874 whole entry): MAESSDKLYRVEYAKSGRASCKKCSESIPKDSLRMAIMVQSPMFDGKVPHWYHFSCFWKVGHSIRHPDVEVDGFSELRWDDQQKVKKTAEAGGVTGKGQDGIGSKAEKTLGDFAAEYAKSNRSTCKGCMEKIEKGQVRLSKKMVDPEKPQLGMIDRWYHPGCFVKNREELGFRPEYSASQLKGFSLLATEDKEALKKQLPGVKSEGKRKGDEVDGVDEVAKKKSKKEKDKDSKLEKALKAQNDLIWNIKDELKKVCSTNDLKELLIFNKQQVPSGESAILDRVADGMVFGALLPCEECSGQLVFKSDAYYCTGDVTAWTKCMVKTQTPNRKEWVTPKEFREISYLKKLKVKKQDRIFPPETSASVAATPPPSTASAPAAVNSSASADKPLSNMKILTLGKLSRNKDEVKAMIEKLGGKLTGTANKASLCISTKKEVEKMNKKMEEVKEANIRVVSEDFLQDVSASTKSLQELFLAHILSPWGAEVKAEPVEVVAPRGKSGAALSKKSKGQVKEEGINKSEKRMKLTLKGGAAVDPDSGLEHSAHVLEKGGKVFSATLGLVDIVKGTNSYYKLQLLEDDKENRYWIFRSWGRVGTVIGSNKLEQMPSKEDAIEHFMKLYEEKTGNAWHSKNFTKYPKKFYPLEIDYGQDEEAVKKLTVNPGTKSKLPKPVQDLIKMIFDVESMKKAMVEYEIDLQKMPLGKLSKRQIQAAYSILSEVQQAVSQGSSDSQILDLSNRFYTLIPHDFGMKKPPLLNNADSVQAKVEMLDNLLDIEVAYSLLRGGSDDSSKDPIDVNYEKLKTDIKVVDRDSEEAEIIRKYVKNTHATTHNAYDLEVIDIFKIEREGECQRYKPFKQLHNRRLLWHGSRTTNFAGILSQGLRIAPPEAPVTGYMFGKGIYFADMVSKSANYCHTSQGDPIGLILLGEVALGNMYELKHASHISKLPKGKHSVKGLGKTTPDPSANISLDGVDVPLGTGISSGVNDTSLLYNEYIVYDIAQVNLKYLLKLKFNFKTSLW
ASSAY_TEXT: PARP inhibitory assay (histone-coated plate, colorimetric)
Type: biochemical
ASSAY_CONTEXT: 10 µM
ENDPOINT_LABEL: inhibition at 10 µM (%)
Reply numerically in %, unit not repeated.

Solved entries:
Cc1ccc(C(=O)Nc2c(NC(=O)CCl)ccc3c2C(=O)c2ccccc2C3=O)cc1	52
NC(=O)c1cccc(N)c1 [3-AB, 3-Aminobenzamide, reference compound]	18
O=C(CCN1CCCC1)Nc1ccc2c(c1)C(=O)c1cc(NC(=O)CCN3CCCC3)ccc1C2=O	47

Query inhibition at 10 µM on PARP-1 (Homo sapiens, UniProt P09874) for "O=C1c2ccccc2C(=O)c2c1ccc1nc(SCCN3CCCC3)[nH]c21" 24

----------
Tested on: NCI-H522
ASSAY_TEXT: NCI-60 drug screen (SRB), NSCLC line NCI-H522
Assay type: cell-based, human
ASSAY_CONTEXT: Homo sapiens, 48 hours drug exposure, SRB, read-out: GI50
ENDPOINT_LABEL: GI50
Answer with the value and then the unit.

CN(C)CCCSc1nc2ccc3c(c2[nH]1)C(=O)c1ccccc1C3=O [NSC747854]	1220 nM

State the recorded GI50 for this entry: Cc1ccc(C(=O)Nc2c(NC(=O)CCl)ccc3c2C(=O)c2ccccc2C3=O)cc1 [NSC749232] 8950 nM

State the recorded GI50 for this entry: O=C(CCN1CCCC1)Nc1ccc2c(c1)C(=O)c1cc(NC(=O)CCN3CCCC3)ccc1C2=O [NSC746366] 3410 nM

State the recorded GI50 for this entry: CCN(CC)CCC(=O)Nc1ccc2c(c1)C(=O)c1cc(NC(=O)CCN(CC)CC)ccc1C2=O [NSC746365] 1400 nM

----------
ASSAY_SYSTEM: PARP-1 (Homo sapiens)
Construct: purchased
ASSAY_TEXT: PARP inhibitory assay (histone-coated plate, colorimetric)
Format: biochemical
ASSAY_CONTEXT: 1 µM
ENDPOINT_LABEL: inhibition at 1 µM (%)
Reply numerically in %, unit not repeated.

O=C(CCN1CCCC1)Nc1ccc2c(c1)C(=O)c1cc(NC(=O)CCN3CCCC3)ccc1C2=O	45
Cc1ccc(C(=O)Nc2c(NC(=O)CCl)ccc3c2C(=O)c2ccccc2C3=O)cc1	51
CN1CCN(Cc2nc3ccc4c(c3[nH]2)C(=O)c2ccccc2C4=O)CC1	28
CCN(CC)CCC(=O)Nc1ccc2c(c1)C(=O)c1cc(NC(=O)CCN(CC)CC)ccc1C2=O	56
CN(C)CC(=O)Nc1ccc2c(c1)C(=O)c1cc(NC(=O)CN(C)C)ccc1C2=O	54
O=C1c2ccccc2C(=O)c2c1ccc1nc(SCCN3CCCC3)[nH]c21	22
NC(=O)c1cccc(N)c1 [3-AB, 3-Aminobenzamide, reference compound]	10

Proceeding to the next compound to report its inhibition at 1 µM.
State the recorded inhibition at 1 µM for this entry: "CN(C)CCCSc1nc2ccc3c(c2[nH]1)C(=O)c1ccccc1C3=O" 57

----------
Tested on: NCI-H23
ASSAY_TEXT: NCI-60 drug screen (SRB), NSCLC line NCI-H23
Type: cell-based, human
ASSAY_CONTEXT: Homo sapiens, 48 hours drug exposure, SRB, read-out: GI50
Listed below: GI50 values for each entry.
Answer with the value and then the unit.

Query GI50 on NCI-H23 for "CN(C)CC(=O)Nc1ccc2c(c1)C(=O)c1cc(NC(=O)CN(C)C)ccc1C2=O" 11 µM

Query GI50 on NCI-H23 for "CN(C)CCCSc1nc2ccc3c(c2[nH]1)C(=O)c1ccccc1C3=O" 5.73 µM

Query GI50 on NCI-H23 for "Cc1ccc(C(=O)Nc2c(NC(=O)CCl)ccc3c2C(=O)c2ccccc2C3=O)cc1" 1.78 µM

----------
Listed below: pIC50 values for each entry.
Tested on: HEL299 cells
ASSAY_TEXT: MTT cytotoxicity assay, HEL299 normal fibroblasts
Format: cell-based
ASSAY_CONTEXT: Homo sapiens, HEL 299, 48 h of drug exposure
// pIC50 is dimensionless: -log10 of concentration (M)

Solved entries:
CN(C)CC(=O)Nc1ccc2c(c1)C(=O)c1cc(NC(=O)CN(C)C)ccc1C2=O [NSC746364]	5.25
O=C1c2ccccc2C(=O)c2c1ccc1nc(SCCN3CCCC3)[nH]c21 [NSC747515]	4.59
NC(=O)c1cccc(N)c1 [3-AB, 3-Aminobenzamide, reference compound]	5.22
O=C(CCN1CCCC1)Nc1ccc2c(c1)C(=O)c1cc(NC(=O)CCN3CCCC3)ccc1C2=O [NSC746366]	4.87
CN(C)CC(=O)Nc1ccc2[nH]c(=O)c3ccccc3c2c1 [PJ-34, reference compound]	4.83

State the recorded pIC50 for this entry: CCN(CC)CCC(=O)Nc1ccc2c(c1)C(=O)c1cc(NC(=O)CCN(CC)CC)ccc1C2=O [NSC746365] 5.14

State the recorded pIC50 for this entry: CN1CCN(Cc2nc3ccc4c(c3[nH]2)C(=O)c2ccccc2C4=O)CC1 [NSC749235] 4.71

State the recorded pIC50 for this entry: Cc1ccc(C(=O)Nc2c(NC(=O)CCl)ccc3c2C(=O)c2ccccc2C3=O)cc1 [NSC749232] 4.57

State the recorded pIC50 for this entry: CN(C)CCCSc1nc2ccc3c(c2[nH]1)C(=O)c1ccccc1C3=O [NSC747854] 4.56

----------
Test system: HOP-62
ASSAY_TEXT: NCI-60 drug screen (SRB), NSCLC line HOP-62
Type: cell-based, human
ASSAY_CONTEXT: Homo sapiens, NCI in vitro 60-cell lines Drug Screen, read-out: -Log GI50 (converted)
Output T for records whose GI50 is lower than 6 µM, F for records at or above 6 µM.

// below: answered molecules
Cc1ccc(C(=O)Nc2c(NC(=O)CCl)ccc3c2C(=O)c2ccccc2C3=O)cc1	T
CCN(CC)CCC(=O)Nc1ccc2c(c1)C(=O)c1cc(NC(=O)CCN(CC)CC)ccc1C2=O	T
O=C1c2ccccc2C(=O)c2c1ccc1nc(SCCN3CCCC3)[nH]c21	F
CN1CCN(Cc2nc3ccc4c(c3[nH]2)C(=O)c2ccccc2C4=O)CC1	F
CN(C)CC(=O)Nc1ccc2c(c1)C(=O)c1cc(NC(=O)CN(C)C)ccc1C2=O	T

Record "O=C(CCN1CCCC1)Nc1ccc2c(c1)C(=O)c1cc(NC(=O)CCN3CCCC3)ccc1C2=O" : is its GI50 strictly below 6 µM? T

----------
Test system: NCI-H23
ASSAY_TEXT: NCI-60 drug screen (SRB), NSCLC line NCI-H23
Type: cell-based, human
ASSAY_CONTEXT: Homo sapiens, 48 hours drug exposure, SRB, read-out: GI50
ENDPOINT_LABEL: GI50 (µM)
Reply numerically in µM, unit not repeated.

Solved entries:
CCN(CC)CCC(=O)Nc1ccc2c(c1)C(=O)c1cc(NC(=O)CCN(CC)CC)ccc1C2=O	1.53
O=C(CCN1CCCC1)Nc1ccc2c(c1)C(=O)c1cc(NC(=O)CCN3CCCC3)ccc1C2=O	2.38

Query GI50 on NCI-H23 for "O=C1c2ccccc2C(=O)c2c1ccc1nc(SCCN3CCCC3)[nH]c21" 11.6

Query GI50 on NCI-H23 for "CN1CCN(Cc2nc3ccc4c(c3[nH]2)C(=O)c2ccccc2C4=O)CC1" 10.7

----------
System: NCI-H522
ASSAY_TEXT: NCI-60 drug screen (SRB), NSCLC line NCI-H522
Assay type: cell-based, human
ASSAY_CONTEXT: Homo sapiens, 48 hours drug exposure, SRB, read-out: LC50 (the source's name)
Output Yes for records whose CC50 is lower than 60 µM, No for records at or above 60 µM.

CN(C)CCCSc1nc2ccc3c(c2[nH]1)C(=O)c1ccccc1C3=O [NSC747854]	Yes

Record CN(C)CC(=O)Nc1ccc2c(c1)C(=O)c1cc(NC(=O)CN(C)C)ccc1C2=O [NSC746364] : is its CC50 strictly below 60 µM? No

Record O=C1c2ccccc2C(=O)c2c1ccc1nc(SCCN3CCCC3)[nH]c21 [NSC747515] : is its CC50 strictly below 60 µM? No

Record CCN(CC)CCC(=O)Nc1ccc2c(c1)C(=O)c1cc(NC(=O)CCN(CC)CC)ccc1C2=O [NSC746365] : is its CC50 strictly below 60 µM? Yes

Record O=C(CCN1CCCC1)Nc1ccc2c(c1)C(=O)c1cc(NC(=O)CCN3CCCC3)ccc1C2=O [NSC746366] : is its CC50 strictly below 60 µM? No

----------
Test system: HOP-62
ASSAY_TEXT: NCI-60 drug screen (SRB), NSCLC line HOP-62
Format: cell-based, human
ASSAY_CONTEXT: Homo sapiens, 48 hours drug exposure, SRB, read-out: LC50 (the source's name)
Description: As a primary screening, seven selected compounds were submitted to the National Cancer Institute (NCI) cell lines screen for evaluation of their anticancer activity. […] Briefly, cellular protein levels were determined after 48 hours of drug exposure by SRB colorimetry. Through the use of a time zero cell control, the cell growth can be determined for each cell line thus allowing calculations of GI50, TGI, and LC50. […]
ENDPOINT_LABEL: CC50 (µM)
Reply numerically in µM, unit not repeated.

Solved entries:
O=C1c2ccccc2C(=O)c2c1ccc1nc(SCCN3CCCC3)[nH]c21	61.2
CN(C)CCCSc1nc2ccc3c(c2[nH]1)C(=O)c1ccccc1C3=O	48.9
CCN(CC)CCC(=O)Nc1ccc2c(c1)C(=O)c1cc(NC(=O)CCN(CC)CC)ccc1C2=O	24
CN(C)CC(=O)Nc1ccc2c(c1)C(=O)c1cc(NC(=O)CN(C)C)ccc1C2=O	60.8
CN1CCN(Cc2nc3ccc4c(c3[nH]2)C(=O)c2ccccc2C4=O)CC1	95.4

State the recorded CC50 for this entry: "O=C(CCN1CCCC1)Nc1ccc2c(c1)C(=O)c1cc(NC(=O)CCN3CCCC3)ccc1C2=O" 45.4

State the recorded CC50 for this entry: "Cc1ccc(C(=O)Nc2c(NC(=O)CCl)ccc3c2C(=O)c2ccccc2C3=O)cc1" 24.4
